Values compiled from the Human Domainome abundance scans (Beltran et al. 2025).

B1: Glucocorticoid receptor, residues 419 to 494; numbered along this chain, P04150 (parent)
chain: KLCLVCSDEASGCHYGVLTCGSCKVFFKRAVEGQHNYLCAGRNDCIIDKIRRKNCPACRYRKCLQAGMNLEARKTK

# Variants of: B1
# assayMethodText: abundance fitness (aPCA) (normalised: wild type 0, dead -1); higher = more abundant; growth selection in yeast, the domain comes from the species named
# conditionNotes: Homo sapiens
Each record here notes measured abundance fitness.

Completed entries (count: 3):
{"polymerSequence": "KLCLVCSDEASGCHYGVLTCGSCKVFFKRAVEGQHNYLCAGRNDCIIDKIGRKNCPACRYRKCLQAGMNLEARKTK [R51G]", "measValue": 0.009}
{"polymerSequence": "KLSLVCSDEASGCHYGVLTCGSCKVFFKRAVEGQHNYLCAGRNDCIIDKIRRKNCPACRYRKCLQAGMNLEARKTK [C3S]", "measValue": -0.728}
{"polymerSequence": "KLCLVCSDEASGCHYGVLTCLSCKVFFKRAVEGQHNYLCAGRNDCIIDKIRRKNCPACRYRKCLQAGMNLEARKTK [G21L]", "measValue": -0.037}

QUERY: Given the entry KLCLVCSDEASGCHYGVLTCGSCKVFFKRAVEFQHNYLCAGRNDCIIDKIRRKNCPACRYRKCLQAGMNLEARKTK [G33F] , report its measured abundance fitness.
RESULT: -0.052

QUERY: Given the entry KLCLVCSDEASGCHYGVLTCGSCKVFFKRAVEGQHNYLCAGRNDCIIDKIRRKNCPACNYRKCLQAGMNLEARKTK [R59N] , report its measured abundance fitness.
RESULT: -0.817

QUERY: Given the entry KLCLVCSDEASGCHYGVLTCGSCKVFFKRAVEGQHNYLCAGRNDCIIDKIRPKNCPACRYRKCLQAGMNLEARKTK [R52P] , report its measured abundance fitness.
RESULT: -0.203
